# System: transactivating tegument protein VP16 (Human herpesvirus 1)
# experimental.protocol: VP16 transactivation reporter inhibitors, counter-screen for SRC2 inhibitor project, cell-based, luminescence, single concentration (AID 652007)
# test.context: cell-based VP16 transactivation luciferase reporter, at 8.9 µM
The source made the active and inactive calls. Cut-off read from the data, not from the text of the source: active = inhibition above about 36%; inactive = the rest.
Labels: active, inactive

{"compound": "OCCN(CCO)CC(O)COc1ccc(C23CC4CC(CC(C4)C2)C3)cc1 (stereo not given)", "assay.system": "transactivating tegument protein VP16 (Human herpesvirus 1)", "assigned.category": "active"}
{"compound": "CCNC(=O)C1(C)CCCN(Cc2csc(-c3ccccc3)n2)C1 (stereo not given)", "assay.system": "transactivating tegument protein VP16 (Human herpesvirus 1)", "assigned.category": "inactive"}
{"compound": "CC(C)(C)c1ccc(C(=O)Nc2ccc(NC(=O)C(=O)O)cc2)o1", "assay.system": "transactivating tegument protein VP16 (Human herpesvirus 1)", "assigned.category": "inactive"}
{"compound": "CC(=O)Nc1ccc(Nc2nc(C)c([N+](=O)[O-])c(N(C)c3ccccc3)n2)cc1", "assay.system": "transactivating tegument protein VP16 (Human herpesvirus 1)", "assigned.category": "inactive"}
{"compound": "CCOC(=O)N1C(=O)[C@@](c2ccc(Cl)cc2)(C(C)C)N1C(=O)OCC", "assay.system": "transactivating tegument protein VP16 (Human herpesvirus 1)", "assigned.category": "inactive"}
